Quick reference: inhibition at 10 µM of the listed items.
Target: 11 β-HSD type 2 (Rattus norvegicus, UniProt P50233)
Construct: Both the kidneys and livers were homogenised on ice in PBS- sucrose buffer; tissue Harlan Olac, Bicester, Oxon, UK (rats); host or cells: rat kidney homogenate supernatant (Wistar rat)
Sequence (P50233 whole entry): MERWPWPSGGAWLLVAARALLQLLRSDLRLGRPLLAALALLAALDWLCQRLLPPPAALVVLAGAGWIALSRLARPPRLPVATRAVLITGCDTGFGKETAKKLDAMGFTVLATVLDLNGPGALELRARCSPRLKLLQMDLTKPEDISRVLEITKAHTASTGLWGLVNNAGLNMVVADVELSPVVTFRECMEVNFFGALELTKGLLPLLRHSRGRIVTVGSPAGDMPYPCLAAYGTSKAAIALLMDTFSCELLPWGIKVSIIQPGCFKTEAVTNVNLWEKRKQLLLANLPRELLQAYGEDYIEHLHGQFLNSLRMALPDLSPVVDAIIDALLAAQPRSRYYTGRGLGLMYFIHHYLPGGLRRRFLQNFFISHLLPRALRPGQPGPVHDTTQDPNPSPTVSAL
Experiment: biochemical
Details: read-out: % […]→E ± SD, inhibitor 10 μM; rat kidney cytosol 150 μL, 60 min, 37° C.; cortisol (F) to cortisone (E); vs control without inhibitor; means n=2; read-out: % INHIBITION F→E ± SD
Method: Enzymes—Rat livers and rat kidneys were obtained from normal Wistar rats (Harlan Olac, Bicester, Oxon,UK). Both the kidneys and livers were homogenised on ice in PBS- sucrose buffer (1 g/10 ml) using an Ultra-Turrax. […] The amount of protein per μl of rat liver and kidney cytosol was determined using the Bradford method. […] In these assays the influence of different inhibitors on the 11 β-HSD activity both in reductive (type 1) and oxidative (type 2) directions were assessed. […]
Express the result in % but write the number alone.

The reported value for CC1(C)C2CC[C@]3(C)[C@H](C(=O)C=C4[C@@H]5C[C@@](C)(C(=O)NCc6ccccn6)CC[C@]5(C)CC[C@]43C)[C@@]2(C)CC[C@@H]1O (stereo partly drawn) [STX 371] in terms of inhibition at 10 µM is 93

Field inhibition at 10 µM (entry CC1(C)C2CC[C@]3(C)C(CC=C4[C@@H]5C[C@@](C)(C(=O)O)CC[C@]5(C)CC[C@]43C)[C@@]2(C)CC[C@@H]1O (stereo partly drawn) [STX122, 11-Deoxo-18β-glycerrhetinic acid] ) reads 109

Recorded inhibition at 10 µM (compound CC(=O)C1CCC2C3CCC4=CC(=O)CC[C@]4(C)C3C(=O)C[C@]12C (stereo partly drawn) [STX124, 11-Oxo-progesterone] ): 92.6

----------
Each entry below lists one item and its recorded melting point value.

Worked examples, 2 compounds total:
{"COMPOUND": "COC(=O)[C@@]1(C)CC[C@]2(C)CC[C@]3(C)C(=CCC4[C@@]5(C)CC[C@H](O)C(C)(C)C5CC[C@]43C)[C@@H]2C1 (stereo partly drawn) [DG 383 B]", "METRIC_NAME": "melting point", "RECORDED_MEASUREMENT": "291 to 293 °C"}
{"COMPOUND": "CC(=O)C1CCC2C3CCC4=CC(=O)CC[C@]4(C)C3[C@H](OCc3ccccc3)C[C@]12C (stereo partly drawn)", "METRIC_NAME": "melting point", "RECORDED_MEASUREMENT": "207 to 210 °C"}

Moving on to the next compound.
// sample COC(=O)[C@@]1(C)CC[C@]2(C)CC[C@]3(C)C(=CCC4[C@@]5(C)CCC(=O)C(C)(C)C5CC[C@]43C)[C@@H]2C1 (stereo partly drawn) , its melting point was 234 to 236 °C

----------
Overview of reported inhibition at 10 µM across a group of molecules:
Target: 11 β-HSD type 1 (Rattus norvegicus, UniProt P16232)
Construct: Both the kidneys and livers were homogenised on ice in PBS- sucrose buffer; tissue Harlan Olac, Bicester, Oxon, UK (rats); host or cells: rat liver homogenate supernatant (Wistar rat)
Sequence (P16232 whole entry): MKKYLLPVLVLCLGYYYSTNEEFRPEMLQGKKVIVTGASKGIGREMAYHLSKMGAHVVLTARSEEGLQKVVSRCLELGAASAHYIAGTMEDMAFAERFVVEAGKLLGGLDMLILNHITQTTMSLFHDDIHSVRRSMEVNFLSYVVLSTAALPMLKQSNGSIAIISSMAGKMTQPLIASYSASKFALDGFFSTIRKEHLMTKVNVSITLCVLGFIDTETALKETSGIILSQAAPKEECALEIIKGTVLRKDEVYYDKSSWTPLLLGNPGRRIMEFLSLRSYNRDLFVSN
Assay: biochemical
Type: biochemical
Conditions: read-out: % […]→F ± SD, inhibitor 10 μM; rat liver cytosol 25 μL, 90 min, 37° C.; cortisone (E) to cortisol (F); vs control without inhibitor; means n=2; read-out: % INHIBITION E→F ± SD
Note: unit % is implicit; provide only the numeric part.

{"MOLECULE": "CC1(C)C(O)CC[C@@]2(C)C1CC[C@]1(C)C2CC=C2[C@@H]3C[C@@](C)(C(=O)OCc4ccccc4)CC[C@]3(C)CC[C@]21C (stereo partly drawn)", "inhibition at 10 µM, %": 37.7}
{"MOLECULE": "COC(=O)[C@@]1(C)CC[C@]2(C)CC[C@]3(C)C(=CC(=O)C4[C@@]5(C)CCC(=O)C(C)(C)C5CC[C@]43C)[C@@H]2C1 (stereo partly drawn) [STX194, Methyl 3-oxo-18β-glycerrhetate]", "inhibition at 10 µM, %": 65.8}

Next up:
Value of measured inhibition at 10 µM for the entry CC1(C)[C@@H](O)CC[C@]2(C)[C@H]3C(=O)C=C4[C@H]5C[C@@](C)(C(=O)O)CC[C@]5(C)CC[C@@]4(C)[C@]3(C)CC[C@@H]12 [STX353, reference compound] : 89
